target: Dihydroorotate dehydrogenase (quinone), mitochondrial (Homo sapiens, UniProt Q02127); assay: Inhibitory activity against recombinant human DHODH
Sequence (Q02127 whole entry): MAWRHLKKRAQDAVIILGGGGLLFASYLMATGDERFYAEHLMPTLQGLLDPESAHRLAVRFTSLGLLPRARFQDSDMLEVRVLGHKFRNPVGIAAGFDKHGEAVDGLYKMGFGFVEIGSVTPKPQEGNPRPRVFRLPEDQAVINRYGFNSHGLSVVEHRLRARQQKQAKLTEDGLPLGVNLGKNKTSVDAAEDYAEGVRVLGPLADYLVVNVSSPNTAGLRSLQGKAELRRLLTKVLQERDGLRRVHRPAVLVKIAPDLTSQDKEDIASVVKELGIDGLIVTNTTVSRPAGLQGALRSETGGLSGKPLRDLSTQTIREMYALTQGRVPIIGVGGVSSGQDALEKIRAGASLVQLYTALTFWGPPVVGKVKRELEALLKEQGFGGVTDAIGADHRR
Property name: pIC50
Give only the number. pIC50 is defined as minus log10 of concentration in molar units.

Consider the following illustrative entries.
Test smiles: CCOc1ccccc1-c1cc(F)c(NC(=O)c2ccsc2C(=O)O)c(F)c1
Property name: pIC50
Quantitative result: 8.05
//
Test smiles: O=C(Nc1ccc(-c2ccccc2)cc1)c1ccsc1C(=O)O
Property name: pIC50
Quantitative result: 6.52

The reported pIC50 value, Dihydroorotate dehydrogenase (quinone), mitochondrial (Homo sapiens, UniProt Q02127), for `CCOc1cccc(-c2cc(F)c(NC(=O)c3cocc3C(=O)O)c(F)c2)c1` reads 7.80

Hey, Dihydroorotate dehydrogenase (quinone), mitochondrial (Homo sapiens, UniProt Q02127) data for `CCOc1cccc(-c2cc(F)c(NC(=O)c3ccsc3C(=O)O)c(F)c2)c1` : pIC50 came out at 8.52

The value of pIC50 recorded for `COc1cccc(-c2ccc(NC(=O)c3ccsc3C(=O)O)c(F)c2)c1` when tested on Dihydroorotate dehydrogenase (quinone), mitochondrial (Homo sapiens, UniProt Q02127) reads 7.36

Lab entry: Dihydroorotate dehydrogenase (quinone), mitochondrial (Homo sapiens, UniProt Q02127) assay, compound `O=C(O)c1cscc1C(=O)Nc1ccc(-c2ccccc2)cc1` , pIC50 = 6.00

Record for `O=C(O)c1cscc1C(=O)Nc1c(F)cc(-c2ccccc2OC(F)(F)F)cc1F` under target or system Dihydroorotate dehydrogenase (quinone), mitochondrial (Homo sapiens, UniProt Q02127): pIC50 reported as 8.00

Considering `COc1ccccc1-c1ccc(NC(=O)c2ccsc2C(=O)O)cc1Cl` , its pIC50 with Dihydroorotate dehydrogenase (quinone), mitochondrial (Homo sapiens, UniProt Q02127) was recorded as 7.92

Record `CCOc1ccccc1-c1cc(F)c(NC(=O)c2cscc2C(=O)O)c(F)c1` ; system Dihydroorotate dehydrogenase (quinone), mitochondrial (Homo sapiens, UniProt Q02127); pIC50 = 8.00

Given the compound `COc1cccc(-c2ccc(NC(=O)c3cocc3C(=O)O)c(F)c2)c1` and test system Dihydroorotate dehydrogenase (quinone), mitochondrial (Homo sapiens, UniProt Q02127), the measured pIC50 is 6.47

---

biological target: Dihydroorotate dehydrogenase (quinone), mitochondrial (Homo sapiens, UniProt Q02127); experiment: Inhibitory activity against recombinant human DHODH
pIC50: −log10 of the molar value.
# pIC50 annotations

Test smiles: COc1cccc(-c2ccc(NC(=O)c3csc(C(=O)O)c3C(=O)O)c(F)c2)c1
pIC50: < 6.00
--
Test smiles: COc1cccc(-c2ccc(NC(=O)c3c(C(=O)O)csc3C(=O)O)c(F)c2)c1
pIC50: < 6.00

The value of pIC50 measured for the compound `COc1cccc(-c2ccc(NC(=O)c3cc(C(=O)O)sc3C(=O)O)c(F)c2)c1` turned out to be < 6.00
